The compounds listed here are annotated with their IC50.
target: platelet activating factor (PAF) receptor (Oryctolagus cuniculus, UniProt G1TEI7); construct: gene PTAFR; native receptor on washed rabbit platelets; assay: 3H-PAF radioligand displacement on washed rabbit platelets; assay type: cell-based; conditions: read-out: IC50
Sequence (G1TEI7 1-342): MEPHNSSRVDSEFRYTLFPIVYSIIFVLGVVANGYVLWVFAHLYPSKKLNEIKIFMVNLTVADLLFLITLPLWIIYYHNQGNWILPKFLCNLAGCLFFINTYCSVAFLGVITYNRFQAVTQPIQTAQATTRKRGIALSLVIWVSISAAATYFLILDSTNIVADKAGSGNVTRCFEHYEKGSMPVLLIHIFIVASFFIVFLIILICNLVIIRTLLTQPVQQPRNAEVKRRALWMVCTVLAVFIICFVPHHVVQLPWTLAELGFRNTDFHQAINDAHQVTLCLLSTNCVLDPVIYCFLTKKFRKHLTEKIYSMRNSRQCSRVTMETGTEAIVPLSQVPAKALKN

- COMPOUND: "C[C@@H]1CC[C@H]2C(C)(C)[C@H]3C[C@@]12CC[C@@]3(C)O [cedrol, reference compound]"
  TESTED TARGET: "platelet activating factor (PAF) receptor (Oryctolagus cuniculus, UniProt G1TEI7)"
  UNIT ABBREVIATION: "µM"
  IC50: 10.6
- COMPOUND: "CO[C@H]1[C@H](O)[C@@H](O)[C@H](O)[C@H](O)[C@H]1O"
  TESTED TARGET: "platelet activating factor (PAF) receptor (Oryctolagus cuniculus, UniProt G1TEI7)"
  UNIT ABBREVIATION: "µM"
  IC50: 42.2
